Values compiled from ChEMBL document CHEMBL1201862.

- System: PC-3
- assay details: NCI tumour cell line growth inhibition, 48 h
Calls of active or inactive are those of the source. Cut-off read from the data, not from the text of the source: active = GI50 up to about 1.1 µM and inactive = higher.
measured endpoint: GI50

Q: Identify the measured GI50 of CC(C)(CCCCC(C)(C)[N+](C)(C)C)[N+](C)(C)C for PC-3.
Ans: > 100 µM (inactive)

Q: Record: COc1ccccc1C(=O)c1c(NCc2ccccc2)c(=O)c1=O
Ans: > 100 µM (inactive)

Q: Record: COP(=O)(OC)C(N)Cc1c[nH]c2ccccc12 (centres undefined)
Ans: > 100 µM (inactive)

Q: Record: CN(C)C(=O)N1N[C@H](c2ccccc2)[C@@H]1c1ccccc1
Ans: 48 µM (inactive)

Q: Record: COc1ccc(OCC(=N/NC(=O)c2ccncc2)/N=C/c2cccnc2)cc1
Ans: > 100 µM (inactive)

Q: Record: CC(=O)c1csc2c1C(=O)c1scc(C(C)=O)c1C2=O
Ans: 2.84 µM (inactive)

Q: Record: CCON=C1C(C)(C)C(C)(C)C(C)(C)C1(C)C
Ans: > 100 µM (inactive)

Q: Record: O=C(O)c1c(Br)c(Br)c(Br)c(Br)c1C1c2ccc(O)cc2Oc2cc(O)ccc21
Ans: > 100 µM (inactive)

Q: Record: Cc1cccc(/N=C/C=C(\Cl)c2ccc3ccccc3c2)c1
Ans: 21 µM (inactive)

====

- System: HCC 2998
- assay details: NCI tumour cell line growth inhibition, 48 h
The source made the active and inactive calls. Cut-off read from the data, not from the text of the source: active = GI50 up to about 1.1 µM and inactive = higher.
Use one of these outcomes when replying: label 1 = active, label 0 = inactive

Q: Hi team, can someone confirm the assay call for CCN(CC)CCC(=O)N1CCc2c([nH]c3ccccc23)C1c1cccnc1 (stereo not given) ?
Ans: label 0

Q: Record: O=C(N/C=C1\C(=O)Oc2ccccc2C1=O)Nc1ccccc1
Ans: label 0

Q: Record: CCOC(=O)c1sc2nc(-c3ccccc3)nn2c1CBr
Ans: label 0

Q: Record: COc1cc2cc(C(=O)N3CC(CCl)c4ccc(NO)cc43)[nH]c2c(OC)c1OC (stereo not given)
Ans: label 1

Q: Record: CCCCCCN1CCc2c(C)c(C#N)c3nc4ccccc4n3c21
Ans: label 0

Q: Record: O=C(Nc1c(Cl)cc([N+](=O)[O-])cc1Cl)C(=O)C(C(=O)c1ccncc1)C1OC(=O)c2ccccc21 (stereo not given)
Ans: label 0

Q: Record: O=C(CC(=O)n1nc(-c2ccccc2)c(/N=N/c2ccc([N+](=O)[O-])cc2)c1-c1ccccc1)Nc1ccc(Cl)cc1
Ans: label 0

Q: Record: O=C1/C(=C/c2cccc(F)c2)CCCc2ccccc21
Ans: label 0

Q: Record: CCn1c(C)nn2c(=O)c3ccccc3nc2c1=O
Ans: label 0

Q: Record: CC(=N\c1ccncc1)/C(C)=N/c1ccncc1
Ans: label 0

Q: Record: COc1ccc(-c2[nH]c(=O)n(C3OC(CO)C(O)C(O)C3O)c(=O)c2C#N)cc1 (stereo not given)
Ans: label 0

Q: Record: Cc1ccc(C2CC(c3cccc([N+](=O)[O-])c3)=Nc3ccccc3S2)cc1 (stereo not given)
Ans: label 0

Q: Record: COC(=O)/C=C\C(C#N)(C#N)/N=C/c1sccc1C
Ans: label 0

Q: Record: CC(C)(C)C(=O)C(Cc1ccccc1)C(=O)C(C)(C)C
Ans: label 0

Q: Record: CN(C)/N=N/c1ccccc1
Ans: label 0

Q: Record: COc1cccc2c1C(=O)C=CC2=O
Ans: label 0

Q: Record: O=C(O)c1c(Br)c(Br)c(Br)c(Br)c1C1c2ccc(O)cc2Oc2cc(O)ccc21
Ans: label 0

Q: Record: COc1ccc2[nH]cc(CCNC(=O)[C@](O)(Cc3cn(C)c4ccccc34)[C@@]3(O)OCC(O)C3O)c2c1 (stereo not given in full)
Ans: label 0

Q: Record: O=C1CSC(/C=C/c2ccccc2)N1c1nc2cc3sc(N4C(=O)CSC4/C=C/c4ccccc4)nc3cc2s1 (stereo not given)
Ans: label 0

Q: Record: CC[C@H]1CC(=O)c2c(cc3c(c2O)C(=O)c2ccccc2C3=O)[C@@]1(C#N)C(=O)OC(C)(C)C
Ans: label 0

Q: Record: Cc1cc2c(cc1C)[n+]([O-])c(C(=O)CC(=O)C(=O)Nc1ccccc1C(C)C)c(C)[n+]2[O-]
Ans: label 0

Q: Record: NCC1OC(OC2C(N)CC(N)C(O)C2OC2OC(CO)C(O)C2O)C(N)C(O)C1O (stereo not given)
Ans: label 0

Q: Record: CC(SC(=S)N1CCOCC1)c1cc2oc(=O)n(C)c2cc1Cl (stereo not given)
Ans: label 0

Q: Record: CCCCCCCCC/C=C1\CCC(CN2CCOCC2)C1=O (stereo not given)
Ans: label 0

Q: Record: O=C(NN1C(=O)CSC1c1cccc(F)c1)c1ccncc1 (stereo not given)
Ans: label 0

Q: Record: Cc1cc(Cc2c(F)c(F)c(C(c3cc(C)no3)c3c(F)c(F)c(F)c(F)c3F)c(F)c2F)on1 (stereo not given)
Ans: label 0

Q: Record: C=C/C=C(\NC(=O)C(Cl)(Cl)Cl)[Si](C)(C)C
Ans: label 0

Q: Record: Cc1ccc(OCC2OC(n3cnc4c(Cl)nc(N)nc43)CC2Oc2ccc(C)cc2)cc1 (stereo not given)
Ans: label 0

Q: Record: Cc1ccc([C@H]2CC(=O)C[C@H](c3ccc(C)cc3)C23C(=O)c2ccccc2C3=O)cc1
Ans: label 0

Q: Record: Cc1nc(SCC(=O)Nc2ccc(Cl)cc2)c2sc(=S)n(-c3ccccc3)c2n1
Ans: label 0

Q: Record: O=C(/C=C\c1ccccc1)Oc1ccc(/C=C2\CCCCC2=O)cc1
Ans: label 0

Q: Record: Clc1ccc(/C(=C\c2ccccc2)Cn2ccnc2)cc1
Ans: label 0

Q: Record: CC(C)(C)OC(=O)NCCCC(=O)NC1(c2cc3ccccc3s2)CCCCC1
Ans: label 0

Q: Record: C=CC[C@@]1(OC(C)=O)C(=O)C(=O)OC1C1COC(C)(C)O1 (stereo not given in full)
Ans: label 0

Q: Record: OC(C1CO1)C(O)C1CO1 (stereo not given)
Ans: label 0
